# condition_notes: in n-butanol, 288.15 K
assay_metric: solubility (mole fraction)
Give only the figure.

In plain terms, O=Cc1ccc([N+](=O)[O-])cc1 has a documented solubility (mole fraction) of 0.0161

* * *

# condition_notes: in ethyl acetate, 293.15 K
assay_metric: solubility (mole fraction)
Give only the figure.

In plain terms, O=Cc1ccc([N+](=O)[O-])cc1 has a documented solubility (mole fraction) of 0.072

* * *

# condition_notes: in ethanol, 293.15 K
assay_metric: solubility (mole fraction)
Give only the figure.

In plain terms, O=Cc1ccc([N+](=O)[O-])cc1 has a documented solubility (mole fraction) of 0.0265

* * *

# condition_notes: in toluene, 293.15 K
assay_metric: solubility (mole fraction)
Give only the figure.

In plain terms, O=Cc1ccc([N+](=O)[O-])cc1 has a documented solubility (mole fraction) of 0.0449
